Reference for the values: paper PMC9092470

Parameter: Kd. Scope: all listed entries.
biological target: T1, p300 CH1 domain (residues 330–420) (UniProt Q09472 330-420); test: ITC; 10 μM p300 in the cell, 100 μM GFP-HIF-1α 776–826 variant in the syringe; 37 °C; 25 mM Tris–HCl, 150 mM NaCl, 1 mM DTT, pH 7.4; fixed 1:1 stoichiometry; conditions: both partners purified
T1 construct: p300 CH1 domain, residues 330–420; The cleavage of GST is said for the anisotropy control; also called p300 with the GST tag cleaved; source: recombinantly expressed as a fusion protein with GST, GST tag cleaved
T1 sequence (Q09472 330-420): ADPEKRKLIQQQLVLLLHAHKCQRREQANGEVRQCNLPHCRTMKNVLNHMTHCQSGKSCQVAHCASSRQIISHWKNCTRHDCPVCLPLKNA
recorded.metric: Kd (nM)

>>> meas_value("GFP-tagged wt HIF-1α 776–826 C-TAD (domain or fragment, UniProt Q16665 776-826, looked up, source: recombinantly expressed as a fusion protein with GFP) SDLACRLLGQSMDESGLPQLTSYDCEVNAPIQGSRNLLQGEELLRALDQVN")
86
>>> meas_value("GFP-HIF-1α 776–826 D823A (domain or fragment, UniProt Q16665 776-826, looked up, As m3 with the stated change; also called HIF-1α D823A; source: recombinantly expressed as a fusion protein with GFP) SDLACRLLGQSMDESGLPQLTSYDCEVNAPIQGSRNLLQGEELLRALAQVN")
369
>>> meas_value("GFP-HIF-1α 776–826 E801A (domain or fragment, UniProt Q16665 776-826, looked up, As m3 with the stated change; also called HIF-1α E801A; source: recombinantly expressed as a fusion protein with GFP) SDLACRLLGQSMDESGLPQLTSYDCAVNAPIQGSRNLLQGEELLRALDQVN")
359
